# System under test: von Hippel-Lindau disease tumor suppressor/Apoptosis regulator Bcl-2 (Homo sapiens) (UniProt P10415+P40337)
# Sequence (P10415 whole entry, looked up): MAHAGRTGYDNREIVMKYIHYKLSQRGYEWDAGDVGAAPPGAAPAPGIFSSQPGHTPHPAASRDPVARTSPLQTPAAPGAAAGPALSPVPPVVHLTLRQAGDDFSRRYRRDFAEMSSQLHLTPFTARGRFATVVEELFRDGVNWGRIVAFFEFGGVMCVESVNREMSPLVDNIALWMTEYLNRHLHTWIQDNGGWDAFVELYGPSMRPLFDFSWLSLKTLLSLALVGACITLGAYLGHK
# Sequence (P40337 whole entry, looked up): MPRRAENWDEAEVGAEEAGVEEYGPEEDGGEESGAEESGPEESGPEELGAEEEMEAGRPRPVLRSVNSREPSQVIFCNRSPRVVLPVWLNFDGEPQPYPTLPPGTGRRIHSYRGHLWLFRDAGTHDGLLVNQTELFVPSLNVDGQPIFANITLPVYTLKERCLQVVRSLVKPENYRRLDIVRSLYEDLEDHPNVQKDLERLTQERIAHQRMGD
# Test: Binding affinity to Halo-tagged VHL/HiBiT-tagged BCL-2 (unknown origin) expressed in HEK293T cells assessed as ternary complex formation at up to 100000 nM measured after 6 hrs by NanoBRET assay
# Type: cell-based
Active and inactive are the calls of the source. The calls are words filed in the database; no cut-off is given here.
// one of active, inactive, no free text

Qu. Recorded call for Cc1ncsc1-c1ccc([C@H](C)NC(=O)[C@@H]2C[C@@H](O)CN2C(=O)[C@@H](NC(=O)CCCCCCCCC(=O)NCC2(C)CCC(c3ccc(Cl)cc3)=C(CN3CCN(c4ccc(C(=O)NS(=O)(=O)c5ccc(N[C@H](CCN6CCOCC6)CSc6ccccc6)c(S(=O)(=O)C(F)(F)F)c5)cc4)CC3)C2)C(C)(C)C)cc1 (some centres undefined) ?
Ans. active

Qu. Recorded call for Cc1ncsc1-c1ccc([C@H](C)NC(=O)[C@@H]2C[C@H](O)CN2C(=O)[C@@H](NC(=O)CCCCCCCCC(=O)NC[C@]2(C)CCC(c3ccc(Cl)cc3)=C(CN3CCN(c4ccc(C(=O)NS(=O)(=O)c5ccc(N[C@H](CCN6CCOCC6)CSc6ccccc6)c(S(=O)(=O)C(F)(F)F)c5)cc4)CC3)C2)C(C)(C)C)cc1 ?
Ans. inactive

Qu. Recorded call for Cc1ncsc1-c1ccc([C@H](C)NC(=O)[C@@H]2C[C@@H](O)CN2C(=O)[C@@H](NC(=O)CCCCCCCCC(=O)NC[C@]2(C)CCC(c3ccc(Cl)cc3)=C(CN3CCN(c4ccc(C(=O)NS(=O)(=O)c5ccc(N[C@H](CCN6CCOCC6)CSc6ccccc6)c(S(=O)(=O)C(F)(F)F)c5)cc4)CC3)C2)C(C)(C)C)cc1 ?
Ans. active

Qu. Recorded call for Cc1ncsc1-c1ccc([C@H](C)NC(=O)[C@@H]2C[C@@H](O)CN2C(=O)[C@@H](NC(=O)CCCCCCCCC(=O)NC[C@@]2(C)CCC(c3ccc(Cl)cc3)=C(CN3CCN(c4ccc(C(=O)NS(=O)(=O)c5ccc(N[C@H](CCN6CCOCC6)CSc6ccccc6)c(S(=O)(=O)C(F)(F)F)c5)cc4)CC3)C2)C(C)(C)C)cc1 ?
Ans. active
